src = patent US8476235B2

experiment: water solubility; assay type: physicochemical; conditions: water, in water, organic solvent free
measurementLabel: solubility

Which solubility is reported for this compound? N[C@H](CCC(=O)N[C@H](Cc1c[nH]c2ccccc12)C(=O)O)C(=O)O [thymodepressin, D-isoglutamyl-D-tryptophan]
~23 mg/mL
